Some molecules, each annotated with its measured IC50.
Target system: BRD4-2 (binding domain 2 of BRD4) (Homo sapiens, UniProt O60885)

{"Molecule": "C=CC(=O)Nc1cccc(-c2csc3c(=S)cc(N4CCOCC4)oc23)c1", "Recorded measurement": "1 to 10 µM"}
{"Molecule": "O=c1cc(N2CCOCC2)oc2c(-c3ccc4c(c3)OCCO4)csc12 [Compound 0, reference compound]", "Recorded measurement": "1 to 10 µM"}

Now look at this entry.
# CCCCC/C=C/C(=O)Nc1cccc(-c2csc3c(=O)cc(N4CCOCC4)oc23)c1 with BRD4-2 (binding domain 2 of BRD4) (Homo sapiens, UniProt O60885): IC50 is 10 to 30 µM

Each recorded value in this set is attributed to patent US20210300939A1.
